Test: qHTS assay for identifying genotoxic compounds that show differential cytotoxicity against isogenic chicken DT40 cell lines with known DNA damage response pathways - wild type cell line (AID 743012); note: nearly all actives have a fitted effect of over 60% in size
Conditions: DT40 wild type chicken cells viability, CellTiter-Glo, 40 h; series mostly up to 68.4 µM
Excerpt: U.S. Tox21 Program National Center for Advancing Translational Sciences [NCATS] NIH Chemical Genomics Center [NCGC] U.S. Environmental Protection Agency [EPA] National Institutes of Environmental Health Sciences [NIEHS] National Toxicology Program [NTP] U.S. Food and Drug Administration [FDA] Tox21 Assay Overview: DNA repair pathways play a critical role in cellular homeostasis by repairing DNA damage induced by endogenous processes and xenobiotics. […]
Inconclusive results are not listed. Calls of active or inactive are those of the source. Calls come from the whole dose curve; as a rule, active = well fitted cell-killing curve with a large enough effect in the repeat runs; inconclusive = weak or mixed curves, or effect the other way; inactive = no such curve, though single readings can be large or run the other way.
// classify into active, inactive

Take a look at these entries with their results.
COc1ccc(/C(=C/C(=O)N2CCOCC2)c2ccc(Cl)cc2)cc1OC
active
CCOC(=O)CC(=O)CCl
active
N#CCCC(Br)(C#N)CBr (centres undefined)
active

Qu. What did this assay record as the result for "O=C(NC(=O)c1c(F)cccc1F)Nc1cc(Cl)c(OC(F)(F)C(F)F)c(Cl)c1" ?
Ans. inactive

Qu. What did this assay record as the result for "CC(C)Oc1cccc(NC(=O)c2ccccc2C(F)(F)F)c1" ?
Ans. active

Qu. What did this assay record as the result for "Clc1ccc(CO/N=C(\Cn2ccnc2)c2ccc(Cl)cc2Cl)c(Cl)c1" ?
Ans. active

Qu. What did this assay record as the result for "CC(C)OC(=S)S" ?
Ans. active

Qu. What did this assay record as the result for "O=C/C(Cl)=C(/Cl)C(=O)O" ?
Ans. active

----------
Assay: qHTS assay to identify small molecule agonists of the androgen receptor (AR) signaling pathway in the presence of an antagonist - cell viability counter screen (AID 1259379); note: nearly all actives have a fitted effect of over 25% in size; note: potency is the fitted concentration of half-maximal effect
Settings: MDA-kb2 viability, CellTiter-Fluor, 16 h; series mostly up to 92.4 µM
Inconclusive results are not listed. Calls of active or inactive are those of the source. Calls follow the shape of the dose curve; as a rule, active = well fitted cell-killing curve with a large enough effect in the repeat runs; inconclusive = weak or mixed curves, or effect the other way; inactive = flat fitted curve, though single readings scatter.
measurement.kind: Potency

Some entries whose results are on file:
CC(C)(C)c1ccc(CSc2cnn(C(C)(C)C)c(=O)c2Cl)cc1
0.0433 µM (active)
O=[N+]([O-])c1cc([N+](=O)[O-])c2ccccc2c1
inactive
CC(C)C(=O)Cl
inactive
CC(C)CCCCCOC(=O)c1ccccc1C(=O)OCCCCCC(C)C
inactive
CN(C)C(=S)S
inactive

Qu. Find the measured Potency of "CN(C)c1ccc(N=Nc2ccccc2)cc1" and report it.
Ans. 48.6 µM (active)

Qu. Find the measured Potency of "CC(=O)[O-].CC(=O)[O-].O.O.[Cd+2]" and report it.
Ans. inactive

----------
Assay: qHTS assay for small molecule activators of the heat shock response signaling pathway - cell viability counter screen (AID 743209); note: nearly all actives have a fitted effect of over 50% in size
Details: HSE-bla HeLa viability, CellTiter-Glo luminescence, 5 h; series mostly up to 62.6 µM
Text: U.S. Tox21 Program National Center for Advancing Translational Sciences [NCATS] NIH Chemical Genomics Center [NCGC] U.S. Environmental Protection Agency [EPA] National Institutes of Environmental Health Sciences [NIEHS] National Toxicology Program [NTP] U.S. Food and Drug Administration [FDA] Tox21 Assay Overview: Various chemicals, environmental and physiological stress conditions may lead to the activation of heat shock response/ unfolded protein response (HSR/UPR). […]
Records with an inconclusive call do not appear. The source made the active and inactive calls. Calls come from the whole dose curve; as a rule, active = well fitted cell-killing curve with a large enough effect in the repeat runs; inconclusive = weak or mixed curves, or effect the other way; inactive = no such curve, though single readings can be large or run the other way.
// classify into active, inactive

Take a look at these entries with their results.
Cc1ccc(OP(=O)(Oc2ccccc2)Oc2ccccc2)cc1
inactive
CCN
inactive
O=C(Nc1ccc2[nH]ccc2c1)c1cc2cc(F)ccc2n1Cc1cccc(F)c1
active
ClC(Cl)=C(Cl)Cl
inactive
Oc1ccc(C2(c3ccc(O)cc3)c3ccccc3-c3ccccc32)cc1
active

Qu. What did this assay record as the result for CCOc1cc(C(C)(C)C)ccc1C1COC(c2c(F)cccc2F)=N1 (centres undefined) ?
Ans. inactive

Qu. What did this assay record as the result for "CC[C@H]1C[C@@H]2C[C@H]3c4[nH]c5ccc(OC)cc5c4CCN(C2)[C@@H]13" ?
Ans. inactive

Qu. What did this assay record as the result for Clc1ccc(CSC(Cn2ccnc2)c2ccc(Cl)cc2Cl)cc1 (centres undefined) ?
Ans. active

Qu. What did this assay record as the result for "CCCCCCCCCC[N+](C)(C)CCCCCCCCCC" ?
Ans. active

Qu. What did this assay record as the result for "CN(C)CCc1c[nH]c2ccc(O)cc12" ?
Ans. inactive

Qu. What did this assay record as the result for "CN(C)CCc1c[nH]c2cccc(O)c12" ?
Ans. inactive

Qu. What did this assay record as the result for "Fc1cccc(Cl)c1CCl" ?
Ans. inactive

Qu. What did this assay record as the result for "CCCCOCN(C(=O)CCl)c1c(CC)cccc1CC" ?
Ans. inactive

Qu. What did this assay record as the result for "BrC(Br)C(Br)(Br)Br" ?
Ans. inactive

Qu. What did this assay record as the result for "O=c1oc2ccccc2c(O)c1Cc1c(O)c2ccccc2oc1=O" ?
Ans. inactive

Qu. What did this assay record as the result for CC1(c2ccc(Oc3ccccc3)cc2)OC(=O)N(Nc2ccccc2)C1=O (centres undefined) ?
Ans. active

Qu. What did this assay record as the result for "Clc1ccc(CO/N=C(\Cn2ccnc2)c2ccc(Cl)cc2Cl)c(Cl)c1" ?
Ans. active

Qu. What did this assay record as the result for CC(C)CC(C)Nc1ccc(Nc2ccccc2)cc1 (centres undefined) ?
Ans. active

Qu. What did this assay record as the result for "C[C@]12CC[C@H]3[C@@H](CCC4=CC(=O)CC[C@@]43C)[C@@H]1CC[C@@H]2O" ?
Ans. inactive

Qu. What did this assay record as the result for C[C@H]1CC[C@@H]2[C@@H](C)[C@H]3[C@H](C[C@H]4[C@@H]5CC=C6CC(O[C@@H]7O[C@H](CO)[C@H](O)[C@H](O[C@@H]8O[C@H](CO)[C@@H](O)[C@H](O)[C@H]8O)[C@H]7O[C@H]7O[C@@H](C)[C@H](O)[C@@H](O)[C@H]7O)CC[C@]6(C)[C@H]5CC[C@]34C)N2C1 (some centres undefined) ?
Ans. active

----------
Test: qHTS assay to identify small molecule agonists of the NFkB signaling pathway - cell viability counter screen (AID 1159515); note: nearly all actives have a fitted effect of over 55% in size
Conditions: NFkB-bla ME-180 viability, CellTiter-Glo luminescence, 5 h; series mostly up to 61 µM
Records with an inconclusive call do not appear. Active and inactive are the calls of the source. Calls follow the shape of the full dose curve.
// classify into Yes (active), No (inactive)

Take a look at these entries with their results.
CCOC(=O)CC(=O)CCl
No
C[C@H]1O[C@@H](O[C@H]2[C@@H](O)C[C@H](O[C@H]3[C@@H](O)C[C@H](O[C@H]4CC[C@@]5(C)[C@H](CC[C@@H]6[C@@H]5CC[C@]5(C)[C@@H](C7=CC(=O)OC7)CC[C@]65O)C4)O[C@@H]3C)O[C@@H]2C)C[C@H](O)[C@@H]1O
Yes
C[C@H]1CC[C@@H]2[C@@H](C)[C@H]3[C@H](C[C@H]4[C@@H]5CC=C6CC(O[C@@H]7O[C@H](CO)[C@H](O)[C@H](O[C@@H]8O[C@H](CO)[C@@H](O)[C@H](O)[C@H]8O)[C@H]7O[C@H]7O[C@@H](C)[C@H](O)[C@@H](O)[C@H]7O)CC[C@]6(C)[C@H]5CC[C@]34C)N2C1 (some centres not stated)
Yes
CC1CCC(C(C)C)C(OC(=O)c2ccccc2N)C1 (configuration not stated)
Yes
CC(=O)[O-].CC(=O)[O-].[Hg+2]
Yes
[Hg+2].[I-].[I-]
Yes

Qu. What did this assay record as the result for "COc1cc(C=O)cc2c1[C@H](COC(N)=O)[C@]1(OC(C)=O)ON2C[C@H]2[C@@H]1N2C(C)=O" ?
Ans. No

----------
Target: Acetylcholinesterase (Homo sapiens)
Test: Acetylcholinesterase (AChE) small molecule antagonists: fluorescence cell-based qHTS assay (AID 1347398); note: nearly all actives have a fitted effect of over 50% in size
Conditions: SH-SY5Y cells; AChE activity; series mostly up to 115 µM
Inconclusive results are not listed. Activity calls are given as the source filed them. Calls come from the whole dose curve.
// classify into 1.0 = active, 0.0 = inactive

Take a look at these entries with their results.
CC(C)(C)c1ccc(CSc2cnn(C(C)(C)C)c(=O)c2Cl)cc1
0.0
CC(=[OH+])/C=C(/C)[O-].CC(=[OH+])/C=C(\C)[O-].CC(=[OH+])/C=C(\C)[O-].[Al]
0.0
COc1ccc(/C(=C/C(=O)N2CCOCC2)c2ccc(Cl)cc2)cc1OC
0.0
ClC1=C(Cl)C2(Cl)C3C(Cl)C(Cl)CC3C1(Cl)C2(Cl)Cl (stereo not given)
0.0
Cn1cc(C2=C(c3cn(C4CCN(Cc5ccccn5)CC4)c4ccccc34)C(=O)NC2=O)c2ccccc21
0.0

Qu. What did this assay record as the result for "N#Cc1c(-c2ccc(Cl)cc2)[nH]c(C(F)(F)F)c1Br" ?
Ans. 0.0

Qu. What did this assay record as the result for CC1(C)CC/C(=C/c2ccc(Cl)cc2)C1(O)Cn1cncn1 (stereo not given) ?
Ans. 0.0

Qu. What did this assay record as the result for "Cc1c(Cl)c(=O)oc2cc(OP(=O)(OCCCl)OCCCl)ccc12" ?
Ans. 1.0

Qu. What did this assay record as the result for "Cc1cc(Cl)ccc1O[C@H](C)C(=O)O" ?
Ans. 0.0

Qu. What did this assay record as the result for "CCCCN(CCCC)C(=S)[S-].CCCCN(CCCC)C(=S)[S-].[Zn+2]" ?
Ans. 0.0
